These data points were gathered from patent US20230286973A1.

Assay: Liver Microsome Stability Assay (mouse)
Conditions: mouse liver microsomes, with NADPH, 1.0 uM compound
observed-property: Liver Microsome Stability (Multiple Species): Mouse - % Remaining after 30 min w/NADPH (%)

# count of solved cases: 8
CN1CCC(Oc2ccc(N3CCC[C@@H]3c3csc(NC(=O)c4cccn4Cc4ccncc4)n3)cc2)CC1
3.14
CC(=O)N1CCC(Oc2ccc(N3CCC[C@@H]3c3csc(NC(=O)c4cccn4CC4CCOCC4)n3)cc2)CC1
54.8
NC(=O)CCn1cccc1C(=O)Nc1nc([C@H]2CCCN2c2ccccc2)cs1
31.7
O=C(Nc1nc(/C=C/C2CCc3ccccc3N2)cs1)c1cccn1Cc1ccncc1 (stereo not drawn)
12.3
O=C(Nc1nc([C@H]2CCCN2c2ccc(C3CCNCC3)cc2)cs1)c1cccn1Cc1ccncc1
64.3
Cc1ccc(S(=O)(=O)N2CCC[C@@H]2c2csc(NC(=O)c3cccn3Cc3ccncc3)n2)cc1
0.1
O=C(Nc1nc([C@H]2CCCN2c2cccnc2)cs1)c1cccn1Cc1ccncc1
22.1
COc1ccc(O[C@H]2CCC[C@H](c3csc(NC(=O)c4cccn4Cc4ccncc4)n3)C2)nc1
0.41

(a) O=C(Nc1nc(/C=C/c2cccc(=O)[nH]2)cs1)c1cccn1Cc1ccnc(F)c1
(b) Cc1c(/C=C/c2csc(NC(=O)c3cccn3Cc3ccnc(F)c3)n2)ncn1C(C)CO (stereo not drawn)
(c) CS(=O)(=O)N1CCC(Oc2ccc(N3CCC[C@@H]3c3csc(NC(=O)c4cccn4Cc4ccnc(F)c4)n3)cc2)CC1
(d) CC(C)n1cnc(/C=C/c2csc(NC(=O)c3cccn3Cc3cccnc3)n2)c1
(e) O=C(Nc1nc(-c2ccccc2-c2ccccn2)cs1)c1cccn1Cc1ccnc(F)c1
Problem: Reorder the items by Liver Microsome Stability (Multiple Species): Mouse - % Remaining after 30 min w/NADPH, least to greatest. // rank by listing labels in the order requested
Result: e, d, a, c, b
(e: 0.09%, d: 0.49%, a: 9.41%, c: 25.5%, b: 40.4%)
